Molecular target: human plasmin (Homo sapiens, UniProt P00747)
Sequence (P00747 97-580 limits assumed): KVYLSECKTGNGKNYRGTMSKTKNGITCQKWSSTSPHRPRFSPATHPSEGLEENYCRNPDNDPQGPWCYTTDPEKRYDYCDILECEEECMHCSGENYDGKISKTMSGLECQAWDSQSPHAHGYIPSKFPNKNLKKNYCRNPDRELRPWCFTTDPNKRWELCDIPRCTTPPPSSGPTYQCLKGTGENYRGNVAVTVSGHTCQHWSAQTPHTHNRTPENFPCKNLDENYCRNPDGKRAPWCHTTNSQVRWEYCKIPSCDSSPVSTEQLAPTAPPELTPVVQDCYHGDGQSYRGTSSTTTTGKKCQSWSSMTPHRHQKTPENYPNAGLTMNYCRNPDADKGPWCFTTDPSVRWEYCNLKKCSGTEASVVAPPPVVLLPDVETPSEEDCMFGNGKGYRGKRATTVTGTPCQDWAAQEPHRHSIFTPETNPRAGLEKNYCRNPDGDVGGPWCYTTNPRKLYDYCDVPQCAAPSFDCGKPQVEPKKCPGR
Sequence (P00747 581-810 limits assumed): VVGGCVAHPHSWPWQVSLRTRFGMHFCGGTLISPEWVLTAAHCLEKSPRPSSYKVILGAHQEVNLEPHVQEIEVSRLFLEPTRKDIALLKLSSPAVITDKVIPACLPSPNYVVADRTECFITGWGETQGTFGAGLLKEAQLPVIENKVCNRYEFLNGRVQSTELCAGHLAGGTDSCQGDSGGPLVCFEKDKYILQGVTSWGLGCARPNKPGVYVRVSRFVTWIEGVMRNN
Test: Direct inhibition of human plasmin, chromogenic substrate
Assay type: biochemical
Conditions: Tris-HCl buffer pH 7.4, 37 °C
REPORTED_ENDPOINT: HS (Hill slope)

{"MOL": "Cc1cc(COc2cc(OS(=O)(=O)[O-])cc3oc(-c4ccc(OS(=O)(=O)[O-])c(OS(=O)(=O)[O-])c4)c(OS(=O)(=O)[O-])c(=O)c23)c(C)cc1COc1cc(OS(=O)(=O)[O-])cc2oc(-c3ccc(OS(=O)(=O)[O-])c(OS(=O)(=O)[O-])c3)c(OS(=O)(=O)[O-])c(=O)c12.[Na+].[Na+].[Na+].[Na+].[Na+].[Na+].[Na+].[Na+]", "ENDPOINT_VALUE": "0.7 ± 0.1"}
{"MOL": "Cc1cc(COc2cc(OS(=O)(=O)[O-])cc3oc(-c4ccc(OS(=O)(=O)[O-])cc4)cc(=O)c23)c(C)cc1COc1cc(OS(=O)(=O)[O-])cc2oc(-c3ccc(OS(=O)(=O)[O-])cc3)cc(=O)c12.[Na+].[Na+].[Na+].[Na+]", "ENDPOINT_VALUE": "2.0 ± 0.1"}
{"MOL": "O=c1cc(-c2ccc(OS(=O)(=O)[O-])cc2)oc2cc(OS(=O)(=O)[O-])cc(OCc3cccc(COc4cc(OS(=O)(=O)[O-])cc5oc(-c6ccc(OS(=O)(=O)[O-])cc6)cc(=O)c45)n3)c12.[Na+].[Na+].[Na+].[Na+]", "ENDPOINT_VALUE": "1.2 ± 0.2"}
{"MOL": "O=c1c(OS(=O)(=O)[O-])c(-c2ccc(OS(=O)(=O)[O-])c(OS(=O)(=O)[O-])c2)oc2cc(OS(=O)(=O)[O-])cc(OCc3ccc(COc4cc(OS(=O)(=O)[O-])cc5oc(-c6ccc(OS(=O)(=O)[O-])c(OS(=O)(=O)[O-])c6)c(OS(=O)(=O)[O-])c(=O)c45)cc3)c12.[Na+].[Na+].[Na+].[Na+].[Na+].[Na+].[Na+].[Na+]", "ENDPOINT_VALUE": "0.7 ± 0.1"}

###

Target: human plasmin (Homo sapiens, UniProt P00747)
Experiment: Direct inhibition of human plasmin, chromogenic substrate
Format: biochemical
Conditions: Tris-HCl buffer pH 7.4, 37 °C
Entry flag: Met if HS (Hill slope) reaches 2; Not met if it does not.

{"MOLECULE": "O=c1cc(-c2ccc(OS(=O)(=O)[O-])cc2)oc2cc(OS(=O)(=O)[O-])cc(OCc3ccc(COc4cc(OS(=O)(=O)[O-])cc5oc(-c6ccc(OS(=O)(=O)[O-])cc6)cc(=O)c45)cc3)c12.[Na+].[Na+].[Na+].[Na+] [NSGM 11]", "SYSTEM": "human plasmin (Homo sapiens, UniProt P00747)", "CLASS_ASSIGNMENT": "Met"}
{"MOLECULE": "O=c1cc(-c2ccc(OS(=O)(=O)[O-])cc2)oc2cc(OS(=O)(=O)[O-])cc(OCCOc3cc(OS(=O)(=O)[O-])cc4oc(-c5ccc(OS(=O)(=O)[O-])cc5)cc(=O)c34)c12.[Na+].[Na+].[Na+].[Na+] [NSGM 7]", "SYSTEM": "human plasmin (Homo sapiens, UniProt P00747)", "CLASS_ASSIGNMENT": "Met"}
{"MOLECULE": "O=c1c(OS(=O)(=O)[O-])c(-c2ccc(OS(=O)(=O)[O-])c(OS(=O)(=O)[O-])c2)oc2cc(OS(=O)(=O)[O-])cc(OCCCCOc3cc(OS(=O)(=O)[O-])cc4oc(-c5ccc(OS(=O)(=O)[O-])c(OS(=O)(=O)[O-])c5)c(OS(=O)(=O)[O-])c(=O)c34)c12.[Na+].[Na+].[Na+].[Na+].[Na+].[Na+].[Na+].[Na+] [NSGM 1]", "SYSTEM": "human plasmin (Homo sapiens, UniProt P00747)", "CLASS_ASSIGNMENT": "Not met"}
{"MOLECULE": "O=c1cc(-c2ccc(OS(=O)(=O)[O-])cc2)oc2cc(OS(=O)(=O)[O-])cc(OCc3cccc(COc4cc(OS(=O)(=O)[O-])cc5oc(-c6ccc(OS(=O)(=O)[O-])cc6)cc(=O)c45)c3)c12.[Na+].[Na+].[Na+].[Na+] [NSGM 14]", "SYSTEM": "human plasmin (Homo sapiens, UniProt P00747)", "CLASS_ASSIGNMENT": "Met"}
{"MOLECULE": "O=c1cc(-c2ccc(OS(=O)(=O)[O-])cc2)oc2cc(OS(=O)(=O)[O-])cc(OC/C=C/COc3cc(OS(=O)(=O)[O-])cc4oc(-c5ccc(OS(=O)(=O)[O-])cc5)cc(=O)c34)c12.[Na+].[Na+].[Na+].[Na+] [NSGM 10]", "SYSTEM": "human plasmin (Homo sapiens, UniProt P00747)", "CLASS_ASSIGNMENT": "Not met"}
{"MOLECULE": "O=c1c(OS(=O)(=O)[O-])c(-c2ccc(OS(=O)(=O)[O-])c(OS(=O)(=O)[O-])c2)oc2cc(OS(=O)(=O)[O-])cc(OCc3cccc(COc4cc(OS(=O)(=O)[O-])cc5oc(-c6ccc(OS(=O)(=O)[O-])c(OS(=O)(=O)[O-])c6)c(OS(=O)(=O)[O-])c(=O)c45)n3)c12.[Na+].[Na+].[Na+].[Na+].[Na+].[Na+].[Na+].[Na+] [NSGM 6]", "SYSTEM": "human plasmin (Homo sapiens, UniProt P00747)", "CLASS_ASSIGNMENT": "Not met"}
{"MOLECULE": "O=c1cc(-c2ccc(OS(=O)(=O)[O-])cc2)oc2cc(OS(=O)(=O)[O-])cc(OCc3ccc(COc4cc(OS(=O)(=O)[O-])cc5oc(-c6ccc(OS(=O)(=O)[O-])c(OS(=O)(=O)[O-])c6)c(OS(=O)(=O)[O-])c(=O)c45)cc3)c12.[Na+].[Na+].[Na+].[Na+].[Na+].[Na+] [NSGM 16]", "SYSTEM": "human plasmin (Homo sapiens, UniProt P00747)", "CLASS_ASSIGNMENT": "Not met"}
{"MOLECULE": "O=c1cc(-c2ccc(OS(=O)(=O)[O-])cc2)oc2cc(OS(=O)(=O)[O-])cc(OCCCCOc3cc(OS(=O)(=O)[O-])cc4oc(-c5ccc(OS(=O)(=O)[O-])cc5)cc(=O)c34)c12.[Na+].[Na+].[Na+].[Na+] [NSGM 9]", "SYSTEM": "human plasmin (Homo sapiens, UniProt P00747)", "CLASS_ASSIGNMENT": "Not met"}

###

Target: human plasmin (Homo sapiens, UniProt P00747)
Experiment: Direct inhibition of human plasmin, chromogenic substrate
Type: biochemical
Details: Tris-HCl buffer pH 7.4, 37 °C
Items are presented alongside their recorded HS (Hill slope).

{"MOL": "O=c1cc(-c2ccc(OS(=O)(=O)[O-])cc2)oc2cc(OS(=O)(=O)[O-])cc(OCc3ccc(-c4ccc(COc5cc(OS(=O)(=O)[O-])cc6oc(-c7ccc(OS(=O)(=O)[O-])cc7)cc(=O)c56)cc4)cc3)c12.[Na+].[Na+].[Na+].[Na+]", "SYSTEM": "human plasmin (Homo sapiens, UniProt P00747)", "HS (Hill slope)": 1.1}
{"MOL": "O=c1c(OS(=O)(=O)[O-])c(-c2ccc(OS(=O)(=O)[O-])c(OS(=O)(=O)[O-])c2)oc2cc(OS(=O)(=O)[O-])cc(OCc3cccc(COc4cc(OS(=O)(=O)[O-])cc5oc(-c6ccc(OS(=O)(=O)[O-])c(OS(=O)(=O)[O-])c6)c(OS(=O)(=O)[O-])c(=O)c45)c3)c12.[Na+].[Na+].[Na+].[Na+].[Na+].[Na+].[Na+].[Na+]", "SYSTEM": "human plasmin (Homo sapiens, UniProt P00747)", "HS (Hill slope)": 0.6}
{"MOL": "O=c1c(OS(=O)(=O)[O-])c(-c2ccc(OS(=O)(=O)[O-])c(OS(=O)(=O)[O-])c2)oc2cc(OS(=O)(=O)[O-])cc(OCc3ccc(-c4ccc(COc5cc(OS(=O)(=O)[O-])cc6oc(-c7ccc(OS(=O)(=O)[O-])c(OS(=O)(=O)[O-])c7)c(OS(=O)(=O)[O-])c(=O)c56)cc4)cc3)c12.[Na+].[Na+].[Na+].[Na+].[Na+].[Na+].[Na+].[Na+]", "SYSTEM": "human plasmin (Homo sapiens, UniProt P00747)", "HS (Hill slope)": 0.8}
